The reported numbers originate from patent US8741942B2.

# Tested on: human Jurkat T cells challenged with Fas ligand and treated with zVAD
# method.notes: Anti-necrotic activity, human Jurkat T cells challenged with Fas ligand and treated with zVAD
# Assay type: cell-based
# assay.conditions: viability after 36 h by CellTiter ATP assay, read-out: EC50 (μM) for cell viability
# note: exactly 6 µM is not below, so it is no; use yes for EC50 strictly under it

molecule	class.name
CN1C(=O)C(Cc2csc3ccccc23)NC1=S (centres unmarked) [Compound 893-21]	no
COc1cccc2c(CC3NC(=S)N(C)C3=O)c[nH]c12 (centres unmarked) [Compound 893-13]	no
CN1C(=O)C(Cc2c[nH]c3cc(Cl)ccc23)NC1=S (centres unmarked) [Compound 893-11]	no
CN1C(=O)C(Cc2cn(C)c3ccccc23)NC1=S (centres unmarked) [Compound 893-08]	no

Check if EC50 falls below 6 µM for CCN1C(=O)NC(Cc2c[nH]c3ccccc23)C1=O (centres unmarked) [Compound 893-04] . no

* * *

Listed here: items and their measured melting point.
Structures can show the parent of a compound that is named as a salt.

compound	melting point
CN1C(=O)C(Cc2c[nH]c3c(F)cccc23)NC1=S (centres unmarked)	217 to 220 °C
CN1C(=O)C(Cc2c[nH]c3cc(F)ccc23)NC1=S (centres unmarked)	126 to 129 °C
CN1C(=O)C(Cc2c[nH]c3c(Cl)cc(S(C)(=O)=O)cc23)NC1=S (centres unmarked)	242 to 245 °C

Return melting point for the following compound: COc1cccc2c(CC3NC(=S)N(C)C3=O)c[nH]c12 (centres unmarked) 219 to 222 °C

Tell us which melting point value is on record for CN1C(=O)C(Cc2cn(C)c3ccccc23)NC1=S (centres unmarked) 155 to 157 °C

Read the entry COc1ccc2[nH]cc(CC3NC(=S)N(C)C3=O)c2c1 (centres unmarked) and write its reported melting point. 181 to 185 °C

Given CN1C(=O)C(Cc2c[nH]c3c(Br)cccc23)NC1=S (centres unmarked) , respond with its melting point. 230 to 233 °C

Complete the entry with melting point for CN1C(=O)C(Cc2c[nH]c3ccc(O)cc23)NC1=S (centres unmarked) 166 to 168 °C

For the compound CN1C(=O)C(Cc2c[nH]c3ccccc23)N(C)C1=S (centres unmarked) , report melting point. 132 to 135 °C

Quick one: give measured melting point for O=C1NC(=O)C(Cc2c[nH]c3ccccc23)N1 (centres unmarked) (as salt: potassium) 229 to 232 °C

Using the record for CN1C(=O)C(C)(Cc2c[nH]c3ccccc23)NC1=S (centres unmarked) , state its measured melting point. 179 to 182 °C

* * *

# System: human Jurkat T cells challenged with Fas ligand and treated with zVAD
# method.notes: Anti-necrotic activity, human Jurkat T cells challenged with Fas ligand and treated with zVAD
# Format: cell-based
# assay.conditions: viability after 36 h by CellTiter ATP assay, read-out: EC50 (μM) for cell viability
Field 'label' (enum: t / f). Set to t when EC50 is strictly under 2 µM; else f.

Answered cases to consult:
compound	class.name
CN1C(=O)C(Cc2c[nH]c3c(Br)cccc23)NC1=S (stereo not drawn)	t
CN1C(=O)C(Cc2c[nH]c3ccccc23)NC1=S (stereo not drawn)	f

Does this compound meet the criterion EC50 < 2 µM? CN1C(=O)C(Cc2c[nH]c3cc(F)ccc23)NC1=S (stereo not drawn) f

Please let me know if CN1C(=O)C(Cc2c[nH]c3c(F)cccc23)NC1=S (stereo not drawn) shows EC50 below 2 µM. f

Lab note: confirm whether the reported EC50 for this compound is below 2 µM, equality not counting. compound: CN1C(=O)NC(Cc2c[nH]c3ccccc23)C1=O (stereo not drawn) f

Quick check: EC50 of CN1C(=O)C(Cc2c[nH]c3c(Cl)cccc23)NC1=S (stereo not drawn) under 2 µM? t
